Recorded max response by entry
assay: qHTS RealTime-Glo MT Cell Viability Assay in HEK293 cells - 40 hour (AID 1224874); settings: RealTime-Glo luminescence; hits give low values; note: % is set by controls: 0 for no effect and ±100 for the full control effect; nearly all actives have a fitted effect of over 50% in size
Inconclusive results are not listed.

compound: O=C(c1ccco1)N1CCNCC1
max response / %: 3.57
--
compound: CC(=O)Nc1ccccc1O
max response / %: 2.65
--
compound: C=CC(C)(O)CC/C=C(/C)CCC=C(C)C (stereo not drawn)
max response / %: 0.65
--
compound: OCC(O)c1ccccc1 (stereo not drawn)
max response / %: -20.6
--
compound: CCC1=C(C)CN(C(=O)NCCc2ccc(S(=O)(=O)NC(=O)NC3CCC(C)CC3)cc2)C1=O (stereo not drawn)
max response / %: -23
--
compound: CC/C=C/CCO
max response / %: -11.5
--
compound: CCCC(=O)OCCC(C)C
max response / %: -1.39
--
compound: Cc1c(N=C=O)cccc1N=C=O
max response / %: 2.75
--
compound: CCc1c(C)[nH]c2c1C(=O)C(CN1CCOCC1)CC2 (stereo not drawn)
max response / %: 2.91
--
compound: O=S(=O)(O)c1cc(Cl)c(Cl)cc1Cl
max response / %: -19.4
--
compound: O=C1CCCN1CCO
max response / %: -23.9
--
compound: C/C(=C\C(C)CC(C)CC(C)C)C1CC(=O)OC1=O (stereo not drawn)
max response / %: -12
--
compound: OCCc1ccncc1
max response / %: -8.09
--
compound: O=C1OC(=O)C2CC=CCC12 (stereo not drawn)
max response / %: 0.701
--
compound: Cc1ccc2c(Cl)cc(Cl)c(O)c2n1
max response / %: -5.73
--
compound: CC1(C)CC(O)CC(C)(C)N1[O]
max response / %: 6.37
--
compound: Nc1ccc(C(=O)Oc2ccccc2)c(O)c1
max response / %: -15.9
--
compound: O=C(O)CNc1ccccc1
max response / %: 5.54
--
compound: C=CC(=O)OCCCCCCCCCC
max response / %: 12.1
--
compound: O=[N+]([O-])c1ccccc1CCO
max response / %: 16.6
--
compound: C(/C=C/C=C/Nc1ccccc1)=Nc1ccccc1
max response / %: -15.7
--
compound: CO[C@@H]1[C@@H](O[C@@H]2O[C@H](C)[C@@H](O[C@H]3C[C@@](C)(O)[C@@H](O)[C@H](C)O3)[C@H](N(C)C)[C@H]2O)[C@@H](CC=O)C[C@@H](C)[C@@H](O[C@@H]2CC[C@H](N(C)C)[C@@H](C)O2)/C=C/C=C/C[C@@H](C)OC(=O)C[C@H]1OC(C)=O
max response / %: 1.04
--
compound: O=C(O)c1ccccc1-n1cc(C(=O)O)c(=O)c2cc(Nc3c(F)cc(F)cc3Cl)c(Cl)cc21
max response / %: 0.656

* * *

test: Caspase-3/7 induction in HepG2 cells by small molecules, qHTS cell viability counter screen (AID 1346981); conditions: CellTiter-Fluor fluorescence, 17 h; series mostly up to 92.4 µM; note: nearly all actives have a fitted effect of over 30% in size
Results filed as inconclusive are left out. Activity calls are given as the source filed them. Calls follow the shape of the dose curve; as a rule, active = well fitted cell-killing curve with a large enough effect in the repeat runs; inconclusive = weak or mixed curves, or effect the other way; inactive = flat fitted curve, though single readings scatter.
Labels: active, inactive

molecule: Cc1cc(SC2=C(O)C[C@@](CCc3ccc(N)cc3)(C(C)C)OC2=O)c(C(C)(C)C)cc1CO
labelClass: inactive
//
molecule: Nc1cccc2c(=O)[nH][nH]c(=O)c12
labelClass: inactive
//
molecule: O=C(O)c1ccncc1
labelClass: inactive
//
molecule: COc1ccnc2c1CCCCC2S(=O)c1nc2ccccc2[nH]1 (stereo not given)
labelClass: inactive
//
molecule: CC1(COc2ccc(CC3SC(=O)NC3=O)cc2)CCCCC1 (stereo not given)
labelClass: inactive
//
molecule: O=C1CCCN1CCO
labelClass: inactive
//
molecule: C[Si](C)(C)O[Si](C)(C)O[Si](C)(C)C
labelClass: inactive
//
molecule: O=C(OC1C[C@H]2CC[C@@H](C1)[N+]21CCCC1)C(O)(c1ccccc1)c1ccccc1 (stereo not given in full)
labelClass: inactive
//
molecule: CCCc1ccc(OC)cc1
labelClass: inactive
//
molecule: CC(C)(C)N
labelClass: inactive
//
molecule: SCCOCCOCCS
labelClass: inactive
//
molecule: O=C(O)c1c2ccccc2cc2ccccc12
labelClass: inactive
//
molecule: CC(C)C[C@H](NC(=O)[C@H](Cc1ccccc1)NC(=O)c1cnccn1)B(O)O
labelClass: active
//
molecule: CC/C=C\CCO
labelClass: inactive
//
molecule: COc1ccc(CN(CCN(C)C)c2ncccn2)cc1
labelClass: inactive

The reported measurements were obtained from PubChem BioAssay (Tox21).
